# System name: Dual specificity mitogen-activated protein kinase kinase 3 (Homo sapiens, UniProt P46734)
# Sequence (P46734 whole entry): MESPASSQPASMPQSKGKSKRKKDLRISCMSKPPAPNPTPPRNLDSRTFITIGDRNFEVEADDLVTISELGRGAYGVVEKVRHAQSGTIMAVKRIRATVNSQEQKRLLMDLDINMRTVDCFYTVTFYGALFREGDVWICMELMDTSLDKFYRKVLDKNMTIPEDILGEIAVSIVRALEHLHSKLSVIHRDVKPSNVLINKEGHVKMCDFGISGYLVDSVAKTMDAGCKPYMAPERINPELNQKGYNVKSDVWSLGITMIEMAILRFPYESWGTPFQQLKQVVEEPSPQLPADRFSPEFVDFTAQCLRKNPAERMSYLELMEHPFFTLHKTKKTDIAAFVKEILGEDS
# Assay explanation: Binding affinity to MKK3 (unknown origin) by surface plasmon resonance assay
Parameter: Kd (µM)
Write the answer as a number in µM, unit excluded.

Record `NC(=O)c1nnc2ccccc2c1N` , field Kd: 2
